B1: RAB40B (parent)
chain: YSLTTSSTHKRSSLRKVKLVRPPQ

Variants of: B1
PROCEDURE_DETAILS: protein stability index of a GFP-peptide fusion (GPS, HEK-293T) (PSI 1-6); higher = more stable;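 also: lentivirally expressed fusions sorted by FACS into six bins by GFP to DsRed ratio, PSI derived from sequencing read proportions per bin multiplied by bin number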
SETUP_CONDITIONS: c terminus: a fixed tail appended
Label criterion met when protein stability index is at or above 3; otherwise label criterion not met.

Challenge: Is it the case that R21K has protein stability index reaching or exceeding 3?
Response given: criterion met

Challenge: Is it the case that S13W has protein stability index reaching or exceeding 3?
Response given: criterion not met

Challenge: Is it the case that S12W has protein stability index reaching or exceeding 3?
Response given: criterion not met

Challenge: Is it the case that L14P has protein stability index reaching or exceeding 3?
Response given: criterion met

Challenge: Is it the case that S13L has protein stability index reaching or exceeding 3?
Response given: criterion not met

***
Challenge: Is it the case that V17I has protein stability index reaching or exceeding 3?
Response given: criterion not met

Challenge: Is it the case that S2M has protein stability index reaching or exceeding 3?
Response given: criterion not met

Challenge: Is it the case that T8P has protein stability index reaching or exceeding 3?
Response given: criterion met

Challenge: Is it the case that T4Q has protein stability index reaching or exceeding 3?
Response given: criterion met

Challenge: Is it the case that R15V has protein stability index reaching or exceeding 3?
Response given: criterion not met
